Hey, just so you know, these numbers are from ChEMBL document CHEMBL5137114.

- assay-method-text: AUC (0 to t) in mouse Pancreas at 50 mg/kg, po measured up to 24 hrs by LC-MS/MS analysis
- Assay type: ADME, organism-based
- Parameters: time < 24 hrs, dose 50 mg/kg, route po
property-label: AUC(0-t) at 24 h
Remember to follow the number with its unit.

Query string: Give the reported value of AUC(0-t) at 24 h for this record: Cc1ccccc1C1C(=O)N(C)c2cnc(Nc3ccc(S(N)(=O)=O)cc3)nc2N1C (stereo unspecified)
Result string: 51400 ng·h/mL

* * *

- assay-method-text: Oral bioavailability in Beagle dog at 10 mg/kg measured up to 24 hrs by LC-MS/MS analysis
- Assay type: ADME, organism-based, Canis lupus familiaris
- study-conditions: in vivo
property-label: bioavailability (%)
Write the value in % as a bare number.

Query string: Give the reported value of bioavailability for this record: Cc1ccccc1C1C(=O)N(C)c2cnc(Nc3ccc(S(N)(=O)=O)cc3)nc2N1C (stereo unspecified)
Result string: 106

* * *

- assay-method-text: Cmax in Beagle dog at 1 mg/kg, iv measured up to 12 hrs by LC-MS/MS analysis
- Assay type: ADME, organism-based, Canis lupus familiaris
- Parameters: dose 1 mg/kg, time < 12 hrs, route iv
- study-conditions: in vivo
property-label: Cmax (ng/mL)
Use ng/mL as the unit, but write only the number.

Query string: Give recorded Cmax. Cc1ccccc1C1C(=O)N(C)c2cnc(Nc3ccc(S(N)(=O)=O)cc3)nc2N1C (stereo unspecified)
Result string: 467

* * *

- assay-method-text: AUC (0 to t) in mouse at 1 mg/kg, iv measured up to 12 hrs by LC-MS/MS analysis
- Type: ADME, organism-based
- Parameters: time < 12 hrs, dose 1 mg/kg, route iv
- study-conditions: in vivo
property-label: AUC(0-t) at 12 h (ng·h/mL)
A number alone suffices; assume ng·h/mL.

Query string: Note down AUC(0-t) at 12 h recorded for Cc1ccccc1C1C(=O)N(C)c2cnc(Nc3ccc(S(N)(=O)=O)cc3)nc2N1C (stereo unspecified)
Result string: 501

* * *

- assay-method-text: Clearance in mouse plasma at 50 mg/kg, po measured up to 24 hrs by LC-MS/MS analysis
- Type: ADME, organism-based
property-label: CL/F (mL/min/kg)
Respond with the bare value in mL/min/kg.

Query string: Find the measured CL/F of Cc1ccccc1C1C(=O)N(C)c2cnc(Nc3ccc(S(N)(=O)=O)cc3)nc2N1C (stereo unspecified) and report it.
Result string: 62.2

* * *

- assay-method-text: Cmax in mouse plasma at 50 mg/kg, po measured up to 24 hrs by LC-MS/MS analysis
- Format: ADME, organism-based
- Set-up: dose 50 mg/kg, time < 24 hrs, route po
property-label: Cmax
Answer shape: numeric part, then the unit.

Query string: Answer with the recorded Cmax of Cc1ccccc1C1C(=O)N(C)c2cnc(Nc3ccc(S(N)(=O)=O)cc3)nc2N1C (stereo unspecified) only.
Result string: 3990 ng/mL

* * *

- assay-method-text: AUC (0 to t) in Beagle dog at 1 mg/kg, iv measured up to 12 hrs by LC-MS/MS analysis
- Assay type: ADME, organism-based, Canis lupus familiaris
- Set-up: time < 12 hrs, dose 1 mg/kg, route iv
- study-conditions: in vivo
property-label: AUC(0-t) at 12 h
The reply should consist of the numeric value with the unit placed after it.

Query string: Read the entry Cc1ccccc1C1C(=O)N(C)c2cnc(Nc3ccc(S(N)(=O)=O)cc3)nc2N1C (stereo unspecified) and write its reported AUC(0-t) at 12 h.
Result string: 764 ng·h/mL
